From: patent US10087165B2

Tested on: M. tuberculosis H37Rv GyrA D94G
Type: cell-based
READOUT_TYPE: MIC (M. tuberculosis) D94G (µM)
Write the number in µM without appending the unit.

[ask] # value lookup — system M. tuberculosis H37Rv GyrA D94G, readout MIC (M. tuberculosis) D94G, item CCCCCCCCN1CCN(c2c(F)cc3c(=O)c(C(=O)O)cn(C4CC4)c3c2OC)CC1 [Quin 18]
[reply] 2

[ask] Follow-up entry: CCCCCCCCN1CCN(c2cc3c(cc2F)c(=O)c(C(=O)O)cn3C2CC2)CC1 [Quin 16]
[reply] 13.5

--- query ---
[ask] Item: CCCCCCCCCCN1CCN(c2c(F)cc3c(=O)c(C(=O)O)cn(C4CC4)c3c2OC)CC1 [Quin 19] Test system: M. tuberculosis H37Rv GyrA D94G Read-out: MIC (M. tuberculosis) D94G Value: ?
[reply] 1
